Test system: VanA and VanB gene sequences
Test Protocol: HPA for detecting VanA and VanB gene sequences (Example 12)
Format: binding, E. faecalis, E. faecium
Conditions: ATCC 51575 (VanB), E. faecalis lysate
Quantity Kind: Probe Hybridization (in RLU)

Asked: Query (sequence): GAGCTTTGAATATCGCAGCCTAC (AE label linker 11/12, chemistry not fully specified; listed as Enterococcus faecalis) [Van A&B(−)734] ; field requested: Probe Hybridization (in RLU)
Given back: 5166 RLU

Asked: Query (sequence): CGTTCAGTACAATGCGGCCG (DNA, backbone and methylation of C not given here; further chemistry not fully specified; listed as Enterococcus faecium) [VanA(−)1325] ; field requested: Probe Hybridization (in RLU)
Given back: 1761 RLU

Asked: Query (sequence): CCGCAGCTTGCATGGACAAATCACTGGC (DNA, backbone and methylation of C not given here; further chemistry not fully specified; listed as Enterococcus faecalis) [VanB(+)084] ; field requested: Probe Hybridization (in RLU)
Given back: 6003 RLU

Asked: Query (sequence): CCAAGCACCCGATATACTTTCTTTGCC (DNA, backbone and methylation of C not given here; further chemistry not fully specified; listed as Enterococcus faecalis) [VanB(−)1006] ; field requested: Probe Hybridization (in RLU)
Given back: 6300 RLU

Asked: Query (sequence): CGCATCCATCAGGAAAACGAGCCGG (DNA, backbone and methylation of C not given here; acridinium ester (AE) label attached via linker; listed as Enterococcus faecalis) [VanB(+)428] ; field requested: Probe Hybridization (in RLU)
Given back: 6307 RLU

Asked: Query (sequence): GGGTTGCTCAGAGGAGCATGACGTATCGG (DNA, backbone and methylation of C not given here; further chemistry not fully specified; listed as Enterococcus faecium) [VanA(+)464] ; field requested: Probe Hybridization (in RLU)
Given back: 696 RLU

Asked: Query (sequence): GCTGAGCTTTGAATATCGCAGCC (AE label linker 8/9, chemistry not fully specified; listed as Enterococcus faecium) [VanA(−)792] ; field requested: Probe Hybridization (in RLU)
Given back: 2254 RLU

// data source = patent US20040229268A1
